target_desc: spike protein of SARS-CoV-2 strain P.1 (SARS-CoV-2, UniProt P0DTC2 14-1273)
measurement_description: cell-based or functional assay
measured_property: IC50 (FRNT neutralisation) (mg/L)
Respond numerically; units are mg/L and should not be typed.

{"binder": "antibody 58 (antibody, V domains shown, also called mAb 58) VH: QVQLVESGGGLVQPGRSLRLSCAASGFTFDDYAMHWVRQPPGKGLEWVSGVSWNSGTIGYADSVKGRFIISRDNAKNSLYLQMNSLKAEDTALYYCAREVGGTFGVLISREGGLDYWGQGTLVTVSS VL: SYELTQPPSVSVAPGQTARITCGGNTIGSKSVHWYQQRPGQAPVLVVYDDSDRPSGIPERFSGSNSGNTATLTISRVEAGDEADYYCQVWDSSSDRVVFGGGTKLTVL", "value": 0.236}

So, antibody 318 (antibody, V domains shown, also called mAb 318) VH: QVQLVQSGPEVKKPGTSVKVSCKASGFTLTSSAMQWVRQARGQRLEWIGWIVVGSGNTNYAQKFQERVTITRDMSTSTAYMELSSLRSEDTAVYYCAAGRGYNSDFDYWGQGTLVTVSS VL: AIRMTQSPGTLSLSPGERATLSCRASQSVSSSYLAWYQQRPGQAPRLLIYGTSSRATGIPDRFSGSGSGTDFTLTISRLEPEDFAVYYCQQYGYSVYTFGQGTKVDIK ? Its IC50 (FRNT neutralisation) was 0.083
